System: MALME-3M melanoma
Assay: NCI tumour cell line growth inhibition, 48 h
measurementLabel: TGI

For orientation, consider the following solved cases.
> print(dat)
                                   molecule  experimentalvalue
1  O=C(Nc1ccccc1)N1C(c2ccccc2)=N[C@@H](c2ccccc2)[C@@H]1c1ccccc1            34.7 µM
2  COC1OC(C)/C(=N/O)C2OC(C)(C)OC12 (centres undefined)           > 100 µM
3  NC(=S)c1cccc(C2Nc3ccccc3O2)c1 (centres undefined)           > 100 µM
4                 CCNC(=O)COc1ccc(Cl)c(C)c1           > 100 µM

[in] Please look up its TGI: `O=C1C=C(NCCc2ccccc2)c2ccccc2C1=O`
[out] 2.47 µM

###

System: MCF7 breast
Assay: NCI tumour cell line growth inhibition, 48 h
measurementLabel: TGI

> print(dat)
            compound  experimentalvalue
1  NCCCNCCSP(=O)(O)O           > 750 µM

[in] Please look up its TGI: OC(Cc1cccc2ccccc12)CN1CCC(c2ccccc2)CC1 (stereo not drawn)
[out] 32.7 µM

[in] Please look up its TGI: `Cc1c2oc(=O)c(C#N)cc2c2ccccn12`
[out] > 100 µM

###

Tested on: HCC-2998 colon
Assay: NCI tumour cell line growth inhibition, 48 h
Listing: TGI of selected compounds
Just the number in µM, nothing appended.

For orientation, consider the following solved cases.
> print(dat)
                                   compound  experimentalvalue
1              BrCc1ccc2ccc3ccc(CBr)nc3c2n1               8.73
2  COC1CCC(OC)C(c2nc3sccn3c2/C=N/N=C(N)N)C1 (stereo unspecified)               54.5

Turning now to a further compound:
[in] Please look up its TGI: N#C/C(=C/C=C/c1cccc(Cl)c1)S(=O)c1ccccc1 (stereo unspecified)
[out] 1.31

###

Test system: CAKI-1 renal
Assay: NCI tumour cell line growth inhibition, 48 h
Listing: GI50 of selected molecules

For orientation, consider the following solved cases.
> print(dat)
                                   molecule  experimentalsystem  experimentalvalue
1  COc1cc(C=NCC(=O)CSC(c2ccccc2)c2ccccc2)ccc1O        CAKI-1 renal            16.6 µM
2  COc1cc(N)c(Cl)cc1C(=O)N[C@@H]1CCN(CCCOc2ccc(F)cc2)C[C@@H]1OC        CAKI-1 renal           > 100 µM
3  COc1ccc(C2=NNC(c3sc(Cl)nc3Cl)C2)cc1 (stereo not given)        CAKI-1 renal            11.8 µM

[in] Which GI50 is reported with CAKI-1 renal for this entry: O=C(O)C(Cc1ccccc1)N1C(=O)/C(=C/C(Cl)=C/c2ccc([N+](=O)[O-])cc2)SC1=S (stereo not given) ?
[out] 2.28 µM

[in] Which GI50 is reported with CAKI-1 renal for this entry: `COc1ccc2c(CN3CCCC[C@H]3O)cc3cc4c(cc3c2c1)OCO4` ?
[out] 0.518 µM

###

Test system: OVCAR-3 ovarian
Assay: NCI tumour cell line growth inhibition, 48 h
measurementLabel: TGI

For orientation, consider the following solved cases.
> print(dat)
                                   compound  experimentalvalue
1  CC(=O)N1CCOC12N=NC(C)(C)O2 (configuration not stated)           > 100 µM
2  CN1Cc2ccccc2C2(COc3ccccc3C2=O)C1 (configuration not stated)           > 100 µM
3         Cc1cc2ccccc2oc(=O)/c1=N\Nc1ccccc1           > 100 µM
4              BrCc1ccc2ccc3ccc(CBr)nc3c2n1            3.43 µM
5  COc1ccc(-c2c(/C=N/OCC(=O)O)c3sc4ccccc4n3c2/C=N/OCC(=O)O)cc1            > 50 µM
6  CC12CC(c3ccccc3O1)C(C(=O)Nc1nccs1)C(=O)N2 (configuration not stated)           > 100 µM

[in] Please look up its TGI: `O=C(OCC1=CC(=O)c2ccccc2C1=O)c1ccccc1`
[out] 18.7 µM

[in] Please look up its TGI: `CCOc1ccc2cc(-c3nn(CC4CCN(C)CC4)c4ncnc(N)c34)ccc2c1`
[out] 39.7 µM

[in] Please look up its TGI: `CSCc1ncc(-c2ccc(C(F)(F)F)cc2)c(NC2CCCCCC2)n1`
[out] > 10 µM

Reference for the values: PubChem BioAssay (NCI)
